Each recorded value in this set is attributed to PubChem BioAssay AID1159580.

Experiment: chemical genetic growth profiling, strain panel (AID 1159580);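 further: tested at 20 µM; growth read once vehicle control cultures reached saturation at 30 °C; 1 = growth at the plate median or of vehicle wells; lower values mean less growth of the strain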
Conditions: S. cerevisiae deletion strains, growth OD, locus YDR052C, strain DBF4, hits give low values
Out of some 5,500 compounds screened, about 2,000 (36%) were called active. Inconclusive results (about 18%) are left out. This is one part of the list.
Reported endpoint: normalized growth

# Molecule, Measured result
rows = [
    ("FC(F)(F)c1cccc(-n2c(CSCc3cccc4ccccc34)n[nH]c2=S)c1", "1 (inactive)"),
    ("CC(C)(C)c1ccc(C(=O)NNc2c(Cl)cccc2Cl)cc1", "0.974 (inactive)"),
    ("Cc1onc(-c2c(Cl)cccc2Cl)c1C(=O)NC(C)(C)CC(C)(C)C", "0.991 (inactive)"),
]

// batch mode: one normalized growth value per listed entry
1. Cc1nc(-c2ccc(S(=O)(=O)Nc3ccc(Br)cc3Cl)s2)cs1
2. ClC1=C(C=Nc2ccc(Cl)cc2)CSc2ccc(Cl)cc21
3. Cc1onc(-c2c(Cl)cccc2Cl)c1C(=O)NNc1c(Cl)cccc1Cl
4. CCCCCCCCCCCC(=O)NOC(=O)c1c(-c2c(Cl)cccc2Cl)noc1C
5. Cc1cccc(NC(=S)NNC(=O)CSCc2cccc3ccccc23)c1
6. O=[N+]([O-])c1ccc2oc(C(O)c3ccc(-c4ccccc4)cc3)cc2c1 (stereo not drawn)
7. O=[N+]([O-])c1ccc(Sc2ssc(=S)c2-c2ccccc2)nc1

Reply:
1. 0.941 (inactive)
2. 0.943 (inactive)
3. 0.99 (inactive)
4. 0.997 (inactive)
5. 1 (inactive)
6. 0.982 (inactive)
7. 0.968 (inactive)

====

Assay: chemical genetic growth profiling, strain panel (AID 1159580)
Conditions: S. cerevisiae deletion strains, growth OD, locus YML016C, strain PPZ1
The whole screen tested about 5,500 compounds, of which about 2,000 (36%) were called active. Roughly 18% stayed inconclusive and do not appear here. Rule as the data show it: active = normalized growth mostly below about 0.91 (no sharp cut-off); inconclusive = no clear call, values can overlap the other calls; inactive = mostly above about 0.92. Some of the results follow.
I would appreciate it if you answered using one of these outcomes: 1 = active, 0 = inactive

Answered examples (4):
# Molecule, Label
records = [
    ("O=c1[nH]oc2c1CCNC2", 0),
    ("CO/N=C(\\C(=O)N[C@@H]1C(=O)N2C(C(=O)O)=C(CSc3nc(=O)c(O)nn3C)CS[C@H]12)c1csc(N)n1", 0),
    ("CO/N=C(\\C(=O)NC1C(=O)N2C(C(=O)O)=C(COC(N)=O)CSC12)c1ccco1 (stereo not drawn)", 1),
    ("NS(=O)(=O)c1cc2c(cc1Cl)NC(C(Cl)Cl)NS2(=O)=O (stereo not drawn)", 0),
]

Query: What did the test return for Cc1ccc(Cl)c(Nc2ccccc2C(=O)O)c1Cl ?
Reply: 1

Query: And CC(C)[C@@H]1CC[C@@H](C)C[C@H]1O ?
Reply: 0

Query: And CC(=O)Oc1c(C)cccc1C(=O)O ?
Reply: 0

Query: And Cc1cccc(Nc2ccccc2C(=O)O)c1C ?
Reply: 1

====

Could you please report measured normalized growth for the items listed next?
Assay: chemical genetic growth profiling, strain panel (AID 1159580)
Settings: S. cerevisiae deletion strains, growth OD, locus YDL028C, strain MPS1, hits give low values
In all, about 5,500 compounds went through this assay and about 2,000 (36%) were called active. About 18% were inconclusive and are not listed. Some of the results follow.

Solved cases below.
# Compound, Reported endpoint, Measured result
measured = [
    ("Cc1ccc(NNC(=O)c2c(C)noc2C)cc1Cl", "normalized growth", "0.986 (inactive)"),
    ("COC(=O)c1sccc1-c1ccc(/C=C/[N+](=O)[O-])o1", "normalized growth", "0.959 (inactive)"),
    ("S=c1[nH]nc(Nc2ccc(I)cc2)s1", "normalized growth", "0.873 (active)"),
    ("Cc1ccc(NS(=O)(=O)c2ccc(-c3csc(C)n3)s2)c(C)c1", "normalized growth", "0.98 (inactive)"),
    ("CC1(C)OC(=O)C(=Cc2cccn2-c2ccc(C(F)(F)F)cc2)C(=O)O1", "normalized growth", "1.01 (inactive)"),
    ("Cc1nc(-c2ccc(S(=O)(=O)Nc3ccc(Br)cc3Cl)s2)cs1", "normalized growth", "0.957 (inactive)"),
    ("Cc1c(-c2ccnn2C(=O)c2ccco2)cnn1-c1ccccc1", "normalized growth", "0.93 (inactive)"),
    ("CC(C)(C)c1ccc(C(=O)Nc2ccc(C(F)(F)F)cc2)s1", "normalized growth", "0.967 (inactive)"),
    ("Cc1onc(-c2c(F)cccc2Cl)c1C(=O)NNc1cc(Cl)cc(Cl)c1", "normalized growth", "0.986 (inactive)"),
    ("O=[N+]([O-])c1ccc2oc(C(O)c3ccc(-c4ccccc4)cc3)cc2c1 (stereo unspecified)", "normalized growth", "0.987 (inactive)"),
]

Query: Given O=C(Nc1ccc(OC(F)(F)F)cc1)N1CCN(c2nc(-c3ccccc3)ns2)CC1 , state its recorded normalized growth.
Reply: 1.01 (inactive)

====

Test: chemical genetic growth profiling, strain panel (AID 1159580);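 further: tested at 20 µM; growth read once vehicle control cultures reached saturation at 30 °C; 1 = growth at the plate median or of vehicle wells; lower values mean less growth of the strain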
Settings: S. cerevisiae deletion strains, growth OD, locus YJL166W, strain qcr8, hits give low values
In all, about 5,500 compounds went through this assay and about 2,000 (36%) were called active. Roughly 18% stayed inconclusive and do not appear here. Some of the results follow.
Reported endpoint: normalized growth
Answers are plain numbers.

# Molecule, Measured result
data = [
    ("CCN(CC)C(=O)c1cccc(C)c1", 1.02),
    ("Clc1cccc(Cl)c1NC1=NCCN1", 0.953),
    ("CO/N=C(\\C(=O)N[C@@H]1C(=O)N2C(C(=O)O)=C(COC(C)=O)CS[C@H]12)c1csc(N)n1", 1.01),
    ("CC1=CC2C(CC1=O)C(C)=CCC2C(C)C (stereo not given)", 0.978),
    ("Nc1nc2ncc(=O)[nH]c2c(=O)[nH]1", 0.982),
]

// batch mode: one normalized growth value per listed entry
1. Nc1ccn(C2O[C@H](CO)[C@@H](O)[C@@H]2O)c(=O)n1 (stereo not given in full)
2. O=c1[nH]oc2c1CCNC2
3. CO/N=C(\C(=O)N[C@@H]1C(=O)N2C(C(=O)O)=C(CSc3nc(=O)c(O)nn3C)CS[C@H]12)c1csc(N)n1
4. COC(=O)C1=CCCN(C)C1
5. CC1OC1P(=O)(O)O (stereo not given)

Reply:
[1.02, 0.965, 0.981, 0.998, 0.986]

====

Experiment: chemical genetic growth profiling, strain panel (AID 1159580);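 further: tested at 20 µM; growth read once vehicle control cultures reached saturation at 30 °C; 1 = growth at the plate median or of vehicle wells; lower values mean less growth of the strain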
Details: S. cerevisiae deletion strains, growth OD, locus YOR184W, strain ser1
In all, about 5,500 compounds went through this assay and about 2,000 (36%) were called active. About 18% were inconclusive and are not listed. No stated cut-off is given here; in the data, active means normalized growth mostly below about 0.91 (no sharp cut-off); inconclusive means no clear call, values can overlap the other calls; inactive means mostly above about 0.92. The list shows a part of the results.
I would appreciate it if you answered using one of these outcomes: true (active), false (inactive)

Answered examples (2):
# Compound, Label
records = [
    ("COc1c(OC)c2occc2c2oc(=O)ccc12", "true"),
    ("CC[N+](CC)(CC)CCOc1cccc(OCC[N+](CC)(CC)CC)c1OCC[N+](CC)(CC)CC", "false"),
]

Kindly consider the entry below.
Query: What did the test return for COc1cc([C@@H]2c3cc4c(c(O)c3C[C@H]3COC(=O)[C@@H]32)OCO4)cc(OC)c1OC ?
Reply: false

====

Assay: chemical genetic growth profiling, strain panel (AID 1159580);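 further: tested at 20 µM; growth read once vehicle control cultures reached saturation at 30 °C; 1 = growth at the plate median or of vehicle wells; lower values mean less growth of the strain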
Conditions: S. cerevisiae deletion strains, growth OD, locus YDL005C, strain med2, hits give low values
The whole screen tested about 5,500 compounds, of which about 2,000 (36%) were called active. About 18% were inconclusive and are not listed. This is one part of the list.
Reported endpoint: normalized growth
Answers are plain numbers.

Solved cases below.
# Compound, normalized growth
rows = [
    ("CC(C)C(=O)Nc1ccc([N+](=O)[O-])c(C(F)(F)F)c1", 1.03),
    ("N[C@@H](CC(=O)N1CCn2c(nnc2C(F)(F)F)C1)Cc1cc(F)c(F)cc1F", 0.983),
    ("CCCCNc1ccc(C(=O)OCCN(C)C)cc1", 1.01),
]

// batch mode: one normalized growth value per listed entry
1. O=C1OC2(c3ccc(O)cc3Oc3cc(O)ccc32)c2ccccc21
2. C=C1CCC2C(CC2(C)C)C(=C)CC/C1=N\O (stereo not given)
3. C=CC(N)CCC(=O)O (stereo not given)
4. O=c1cc(-c2ccccc2O)oc2cc(O)ccc12

Reply:
1. 1.02
2. 0.994
3. 0.977
4. 0.956

// batch mode: one normalized growth value per listed entry
1. C=C1CCC2C(CC2(C)C)C(=O)CCC1O (stereo not given)
2. CCN(CC)CCOC(=O)c1ccc(N)cc1
3. O=C1OC(c2ccc(O)cc2)(c2ccc(O)cc2)c2ccccc21
4. CC1(C)NC(=O)N(c2ccc([N+](=O)[O-])c(C(F)(F)F)c2)C1=O
5. Cc1c(Cl)cccc1Nc1ccccc1C(=O)O
6. CCCOc1ccc(C(=O)OCCN(CC)CC)cc1N

Reply:
1. 0.991
2. 0.99
3. 0.97
4. 0.993
5. 0.865
6. 1.01

// batch mode: one normalized growth value per listed entry
1. CCCCN1CCCCC1C(=O)Nc1c(C)cccc1C (stereo not given)
2. NC(=O)c1cccc(N)c1

Reply:
1. 0.984
2. 0.969
